Calls of active or inactive are those of the source.
For reference, Kd measured on Protein kinase C alpha type (Homo sapiens, UniProt P17252):

The following molecules have reported results that may help.
# Molecule, Study target, Assay result
records = [
    ("CN1CCC(COc2cnc(-c3cccc(Cn4nc(-c5cccc(C#N)c5)ccc4=O)c3)nc2)CC1 [TEPOTINIB]", "Protein kinase C alpha type (Homo sapiens, UniProt P17252)", "> 30 µM (inactive)"),
    ("COc1cc(CCc2cc(NC(=O)c3ccc(N4C[C@@H](C)N[C@@H](C)C4)cc3)n[nH]2)cc(OC)c1 [AZD-4547]", "Protein kinase C alpha type (Homo sapiens, UniProt P17252)", "> 30 µM (inactive)"),
]

Now look at this entry.
stdin: Kd for O=c1sn(-c2cccc3ccccc23)c(=O)n1Cc1ccccc1 [TIDEGLUSIB] ?
stdout: > 30 µM (inactive)

* * *

Molecular target: Tyrosine-protein kinase Fer (Homo sapiens); also: in the data inactive means no Kd found up to 30 µM
Sequence (P16591 whole entry): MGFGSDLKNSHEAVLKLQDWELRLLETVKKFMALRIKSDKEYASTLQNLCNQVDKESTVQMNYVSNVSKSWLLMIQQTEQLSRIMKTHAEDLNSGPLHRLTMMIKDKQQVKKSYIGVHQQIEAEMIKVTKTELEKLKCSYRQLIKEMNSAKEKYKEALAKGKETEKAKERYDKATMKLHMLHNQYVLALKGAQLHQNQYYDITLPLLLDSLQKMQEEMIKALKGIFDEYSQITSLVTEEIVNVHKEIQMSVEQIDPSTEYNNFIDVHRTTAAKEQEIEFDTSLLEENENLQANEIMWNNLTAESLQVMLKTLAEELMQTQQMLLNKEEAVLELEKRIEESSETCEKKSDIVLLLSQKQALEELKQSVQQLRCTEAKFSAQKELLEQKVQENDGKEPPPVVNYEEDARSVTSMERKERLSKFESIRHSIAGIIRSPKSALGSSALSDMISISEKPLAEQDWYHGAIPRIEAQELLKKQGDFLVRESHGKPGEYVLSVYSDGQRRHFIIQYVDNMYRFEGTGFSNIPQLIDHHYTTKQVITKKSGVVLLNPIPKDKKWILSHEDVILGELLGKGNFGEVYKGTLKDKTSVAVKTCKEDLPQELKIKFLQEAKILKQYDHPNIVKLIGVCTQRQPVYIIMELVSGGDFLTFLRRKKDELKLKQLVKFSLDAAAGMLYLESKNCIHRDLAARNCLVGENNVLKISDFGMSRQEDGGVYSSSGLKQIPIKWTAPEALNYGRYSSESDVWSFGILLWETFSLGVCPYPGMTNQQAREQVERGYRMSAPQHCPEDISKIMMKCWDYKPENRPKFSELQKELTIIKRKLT
The source made the active and inactive calls.
Returns: one label drawn from active, inactive

Consider the following illustrative entries.
# Compound, Study target, Class assignment
records = [
    ("C[C@@H]1CN(Cc2ccc(F)cc2)[C@@H](C)CN1C(=O)c1cc2c(C(=O)C(=O)N(C)C)cn(C)c2cc1Cl", "Tyrosine-protein kinase Fer (Homo sapiens)", "inactive"),
    ("Cc1ccc(NC(=O)c2ccc(CN3CC[C@H](N(C)C)C3)c(C(F)(F)F)c2)cc1Nc1nccc(-c2cncnc2)n1", "Tyrosine-protein kinase Fer (Homo sapiens)", "inactive"),
    ("COc1cc(N2CCC(N3CCN(C)CC3)CC2)ccc1Nc1ncnc(Nc2ccccc2S(=O)(=O)C(C)C)n1", "Tyrosine-protein kinase Fer (Homo sapiens)", "active"),
    ("CN(C)C(=O)c1cc2cnc(Nc3ccc(N4CCNCC4)cn3)nc2n1C1CCCC1", "Tyrosine-protein kinase Fer (Homo sapiens)", "inactive"),
    ("CC(C)Nc1cc(-c2c[nH]c(C(=O)N[C@H](CO)c3cccc(Cl)c3)c2)c(Cl)cn1", "Tyrosine-protein kinase Fer (Homo sapiens)", "inactive"),
]

stdin: For "CCn1c(=O)c(-c2cc[nH]n2)cc2c(C)nc(N)nc21" , which call appears in the assay record?
stdout: inactive

stdin: How did this test come out for "CNS(=O)(=O)Nc1nccc(Cc2c(C)c3ccc(Oc4ncccn4)cc3oc2=O)c1F" ?
stdout: inactive

stdin: Which result was noted for this compound in the test: "Cc1cc([C@@H](C)Nc2ccccc2C(=O)O)c2nc(N3CCOCC3)cc(=O)n2c1"
stdout: inactive

stdin: Lab log entry: O=C(Nc1ccc(-c2ccnc(Nc3ccc(N4CCOCC4)cc3)n2)cc1)C1CCCN1 (centres undefined) — outcome as called in the assay?
stdout: inactive

* * *

Target: Breakpoint cluster region protein (Homo sapiens, UniProt P11274); also: in the data inactive means no Kd found up to 30 µM
Sequence (P11274 whole entry): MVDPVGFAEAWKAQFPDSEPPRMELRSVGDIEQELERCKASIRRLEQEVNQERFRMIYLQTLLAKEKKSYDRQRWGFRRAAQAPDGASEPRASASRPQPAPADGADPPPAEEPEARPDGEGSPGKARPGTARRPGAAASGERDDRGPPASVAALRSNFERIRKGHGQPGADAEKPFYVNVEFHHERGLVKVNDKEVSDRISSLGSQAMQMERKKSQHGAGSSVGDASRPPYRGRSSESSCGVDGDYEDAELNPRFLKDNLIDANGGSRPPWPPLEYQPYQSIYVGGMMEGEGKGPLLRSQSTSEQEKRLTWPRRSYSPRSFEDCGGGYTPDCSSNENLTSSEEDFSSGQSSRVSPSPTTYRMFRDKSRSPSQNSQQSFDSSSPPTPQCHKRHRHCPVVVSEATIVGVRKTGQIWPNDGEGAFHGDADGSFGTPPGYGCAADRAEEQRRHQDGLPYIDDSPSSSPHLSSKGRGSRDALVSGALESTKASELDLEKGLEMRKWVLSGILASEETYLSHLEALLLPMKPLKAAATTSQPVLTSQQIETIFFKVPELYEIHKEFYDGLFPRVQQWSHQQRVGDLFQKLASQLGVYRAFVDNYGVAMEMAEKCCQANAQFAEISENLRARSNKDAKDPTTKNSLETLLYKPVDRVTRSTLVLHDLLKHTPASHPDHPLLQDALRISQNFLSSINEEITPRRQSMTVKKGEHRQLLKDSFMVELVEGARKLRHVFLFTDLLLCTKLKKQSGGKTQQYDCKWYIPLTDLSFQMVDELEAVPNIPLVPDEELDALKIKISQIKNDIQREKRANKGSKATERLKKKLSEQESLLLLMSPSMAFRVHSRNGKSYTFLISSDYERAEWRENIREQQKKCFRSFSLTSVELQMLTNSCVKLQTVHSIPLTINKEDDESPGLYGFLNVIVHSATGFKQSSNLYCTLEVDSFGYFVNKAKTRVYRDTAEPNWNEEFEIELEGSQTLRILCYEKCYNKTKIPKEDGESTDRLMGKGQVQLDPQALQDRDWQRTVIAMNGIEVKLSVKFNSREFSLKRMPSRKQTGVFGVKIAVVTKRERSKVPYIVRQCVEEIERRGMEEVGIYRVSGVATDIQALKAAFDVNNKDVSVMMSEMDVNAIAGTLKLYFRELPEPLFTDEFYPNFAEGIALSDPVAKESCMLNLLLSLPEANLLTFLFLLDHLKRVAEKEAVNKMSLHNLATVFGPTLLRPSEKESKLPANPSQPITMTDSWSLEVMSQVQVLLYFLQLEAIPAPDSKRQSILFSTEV
Calls of active or inactive are those of the source.
Pick one: t for active, f for inactive

# Molecule, Study target, Class assignment
data = [
    ("Cn1cc(-c2ccc3nnc(C(F)(F)c4ccc5ncccc5c4)n3n2)cn1", "Breakpoint cluster region protein (Homo sapiens, UniProt P11274)", "f"),
    ("CCN1CCN(Cc2ccc(-c3cc4c(N[C@H](C)c5ccccc5)ncnc4[nH]3)cc2)CC1", "Breakpoint cluster region protein (Homo sapiens, UniProt P11274)", "t"),
    ("CN1N=C(N)c2cn([C@@H]3O[C@H](COP(=O)(O)O)[C@@H](O)[C@H]3O)c3ncnc1c23 [TRICIRIBINE PHOSPHATE]", "Breakpoint cluster region protein (Homo sapiens, UniProt P11274)", "f"),
]

stdin: Give the logged outcome of this assay for the following molecule: "Cc1nc(N)sc1-c1ccnc(Nc2ccc(N3CCOCC3)cc2)n1"
stdout: t

stdin: So what was the verdict on "COc1cc(N2CCC(N3CCN(C)CC3)CC2)ccc1Nc1ncnc(Nc2ccccc2S(=O)(=O)C(C)C)n1" in this test?
stdout: f

stdin: What is the recorded call for this molecule in the test? "C[C@@H]1CN(Cc2ccc(F)cc2)[C@@H](C)CN1C(=O)c1cc2c(C(=O)C(=O)N(C)C)cn(C)c2cc1Cl"
stdout: f

stdin: Field: outcome | Entry: "Cc1cc([C@@H](C)Nc2ccccc2C(=O)O)c2nc(N3CCOCC3)cc(=O)n2c1"
stdout: f

stdin: Name the outcome recorded for "Nc1nc(N)c2nc(-c3cccc(O)c3)c(-c3cccc(O)c3)nc2n1" in the assay.
stdout: f
